biological target: HLA-B*58:01 (Homo sapiens, UniProt P01889, A329T/C349S/D201E/D98Y/E176V/E187L/E204Q/E69T/G107R/I218V/I90N/K202T/L105A/L119I/N104I/N87E/Q89R/Q94S/R106L/R155S/R180L/R86G/S101N/S121R/S35A/S48A/T118I/V127L/V306I/V36M/Y140S/Y91M); format: binding; conditions: percent relative the binding of positive control peptide […]; duplicated experiments; positive binder >40%
METRIC: Bind B*58:01 (%)
Just the number in %, nothing appended.

These recorded examples may help you get a feel for the data.
[
  {
    "SUBSTANCE": "SNLKFQDAY",
    "NUMERIC_VALUE": 14
  },
  {
    "SUBSTANCE": "ALLDPSQGM",
    "NUMERIC_VALUE": 1
  },
  {
    "SUBSTANCE": "GITYQAWQA [Rv0288_48–56]",
    "NUMERIC_VALUE": 46
  },
  {
    "SUBSTANCE": "PTQQIPKLV",
    "NUMERIC_VALUE": 9
  },
  {
    "SUBSTANCE": "SSFYSDWYS",
    "NUMERIC_VALUE": 0
  },
  {
    "SUBSTANCE": "GKAGCQTYK",
    "NUMERIC_VALUE": 22
  },
  {
    "SUBSTANCE": "AMKGDLQSS",
    "NUMERIC_VALUE": 0
  },
  {
    "SUBSTANCE": "SQGMGPSLI",
    "NUMERIC_VALUE": 11
  },
  {
    "SUBSTANCE": "KLVANNT RL",
    "NUMERIC_VALUE": 40
  },
  {
    "SUBSTANCE": "EANTMAMMA [Rv0288_77–85]",
    "NUMERIC_VALUE": 0
  }
]

Query string: Find the recorded Bind B*58:01 belonging to `SGLSIVMPV` and report it.
Result string: 0
